Target: Human recombinant MMP-2 (Homo sapiens, UniProt P08253)
Construct: made in house; host or cells: MMP-2-transfected p2AHT2 cells
Sequence (P08253 110-660): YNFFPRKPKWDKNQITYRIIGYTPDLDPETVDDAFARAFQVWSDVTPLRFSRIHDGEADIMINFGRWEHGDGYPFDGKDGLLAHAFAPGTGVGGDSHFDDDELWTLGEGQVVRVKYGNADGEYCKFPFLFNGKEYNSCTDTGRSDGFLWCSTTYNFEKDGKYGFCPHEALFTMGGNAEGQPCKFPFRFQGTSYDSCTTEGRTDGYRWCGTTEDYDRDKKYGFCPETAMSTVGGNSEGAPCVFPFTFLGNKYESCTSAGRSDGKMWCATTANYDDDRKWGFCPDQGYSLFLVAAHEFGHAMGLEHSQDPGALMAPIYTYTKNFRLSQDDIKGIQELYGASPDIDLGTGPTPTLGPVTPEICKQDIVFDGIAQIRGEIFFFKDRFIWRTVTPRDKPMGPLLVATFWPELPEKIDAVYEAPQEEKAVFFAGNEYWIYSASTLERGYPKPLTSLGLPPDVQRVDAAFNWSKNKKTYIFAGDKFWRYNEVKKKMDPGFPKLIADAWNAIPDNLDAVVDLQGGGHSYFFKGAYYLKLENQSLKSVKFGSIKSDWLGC
Experiment: In vitro MMP inhibition, Ki determination (fluorogenic substrate II)
Format: biochemical
Conditions: substrate (II) 4 μM, 1 hr room temperature; apparent Ki, values in parenthesis
Structures can show the parent of a compound that is named as a salt.
QUANTITY: Ki (nM)

Past entries and their recorded results:
Prompt: Could you share which Ki value was measured for O=C(NO)C1(S(=O)(=O)c2ccc(OCCCc3nc(-c4ccc(OC(F)(F)F)cc4)no3)cc2)CCOCC1 ?
Response: 413

Prompt: Entry to check: COCCN1CCC(C(=O)NO)(S(=O)(=O)c2ccc(OCCCc3cccc(-c4ccc(F)c(F)c4)c3)cc2)CC1
Response: 543

Prompt: Entry to check: COCCN1CCC(C(=O)NO)(S(=O)(=O)c2ccc(OCCCc3nc(-c4ccc(OC(F)(F)F)cc4)no3)cc2)CC1
Response: 186

Prompt: Entry to check: CCN1CCC(C(=O)NO)(S(=O)(=O)c2ccc(OCCCc3nc(-c4ccc(OC(F)(F)F)cc4)no3)cc2)CC1 [Example 41, Hydrochloride]
Response: 415

Prompt: Entry to check: COCCN1CCC(C(=O)NO)(S(=O)(=O)c2ccc(OCCCc3cccc(-c4ccc(Cl)cc4)c3)cc2)CC1
Response: 1130

P. O=C(NO)C1(S(=O)(=O)c2ccc(OCCCn3nnc(-c4ccc(OC(F)(F)F)cc4)n3)cc2)CCN(CC2CC2)CC1
Q. O=C(NO)C1(S(=O)(=O)c2ccc(OCCCc3nc(-c4ccc(OC(F)(F)F)cc4)no3)cc2)CCN(C2CC2)CC1 [Example 51, Hydrochloride]
Prompt: Between the entries labeled P and Q , whose measured Ki is lower? Refer to your chosen entry by its label in the reply.
Response: Q
(Q: 93.7 nM, P: 697 nM)
